molecular target: human β-Secretase (sBACE-Fc, soluble part AA 1-AA 460) (Homo sapiens (Human), UniProt P56817); test: Diluted TR-FRET assay; assay type: biochemical; conditions: IC50 from the diluted FRET assay (footnote a): 50 times less enzyme, 6.5 h reaction time
Sequence (P56817 22-460): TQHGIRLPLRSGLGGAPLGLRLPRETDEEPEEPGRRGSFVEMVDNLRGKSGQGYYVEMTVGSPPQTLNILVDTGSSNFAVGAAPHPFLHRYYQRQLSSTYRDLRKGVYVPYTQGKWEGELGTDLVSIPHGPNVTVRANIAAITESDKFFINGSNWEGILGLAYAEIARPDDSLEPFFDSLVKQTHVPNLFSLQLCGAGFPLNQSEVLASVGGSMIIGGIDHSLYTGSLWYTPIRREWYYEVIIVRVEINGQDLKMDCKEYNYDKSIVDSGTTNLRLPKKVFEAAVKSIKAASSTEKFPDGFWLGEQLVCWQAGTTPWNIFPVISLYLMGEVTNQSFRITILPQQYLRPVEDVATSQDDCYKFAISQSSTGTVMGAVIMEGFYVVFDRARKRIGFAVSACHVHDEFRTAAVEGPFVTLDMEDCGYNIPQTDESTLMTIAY
pIC50: −log10 of the molar value.
reportedEndpoint: pIC50

- molecule: "CC1=N[C@]2(N=C1N)c1cc(-c3cc(Cl)cc(C#N)c3)ccc1C[C@]21CC[C@@H](O)CC1 (single isomer, unassigned; isomer 1) [15, isomer 1]"
  resultValue: 8.49
- molecule: "CC1=N[C@]2(N=C1N)c1cc(OCCCF)ccc1C[C@]21CC[C@@H](OC(F)F)CC1 (single isomer, unassigned; isomer 1) [13, isomer 1]"
  resultValue: 8.52

Just for reference, patent US9000182B2 is where these values come from.
